The reported numbers originate from PubChem BioAssay.

# Lookup of reported fold change permeability keyed by entry
- measurement_notes: compounds altering in vitro BBB leakiness – cell-based, FITC-avidin fluorescence, HTS, primary screen (AID 1963498); note: test concentration not given here
- condition_notes: brain endothelial barrier, actives lie on both sides
Just the number, please.

>>> df
                                   compound            property_label  measurement
0  CC(/C=C1\SC(=S)N(CC(=O)O)C1=O)=C\c1ccccc1  fold change permeability            1

Value of fold change permeability reported for the compound NC(N)=NC(N)=Nc1cccc(Cl)c1 is 1.2

====

- measurement_notes: compounds altering in vitro BBB leakiness – cell-based, FITC-avidin fluorescence, HTS, primary screen (AID 1963498); note: test concentration not given here
- condition_notes: brain endothelial barrier, actives lie on both sides
Criterion: fold change permeability meeting or surpassing 1. Met: yes. Not met: no.

Consider the following illustrative entries.
>>> print(df.to_string())
                                   molecule  class_label
0  NC(Cc1ccc(Cl)cc1)C(=O)O (stereo unspecified)           no
1  N#Cc1c2nc3ccccc3nc2n2ccc(NC(=O)c3cccs3)cc12          yes

# input Decide: is the reported value of fold change permeability for Cc1cc2nc(NCCCO)n(CC(=O)c3cc(C(C)(C)C)c(O)c(C(C)(C)C)c3)c2cc1C equal to or greater than 1?
# output yes

# input Answer whether fold change permeability of CCCCCCCCCC[Si](C)(C)CCC(=O)NC(Cc1ccc(C)cc1)c1ccccc1 (stereo unspecified) is greater than or equal to 1.
# output no

====

- measurement_notes: compounds altering in vitro BBB leakiness – cell-based, FITC-avidin fluorescence, HTS, primary screen (AID 1963498); note: test concentration not given here
- condition_notes: brain endothelial barrier, actives lie on both sides
property_label: fold change permeability
Lab note: record just the number, no unit beside it.

In [3]: df
Out[3]:
                                test_smiles  measurement
0                CC1(C)CO[C@@H](CC(=O)O)CN1          1.2
1                Nc1ccc(-c2ccc3ccccc3n2)cc1          1.1
2        Nc1nc2ccc(Cl)cc2c2nc(-c3ccco3)nn12          1.3
3  C=C1C[C@@]23CC[C@H]4[C@@](C)(CCC[C@@]4(C)C(=O)O)[C@@H]2CC[C@]1(O)C3          0.9
4  CC[C@H](NC(=O)c1c(C)c(-c2ccccc2)nc2ccccc12)c1ccccc1            1

Summary for this molecule, O=C(O)CN(CCOCCOCCN(CC(=O)O)CC(=O)O)CC(=O)O : fold change permeability is 0.8

O=C(O)C1=CCCN(CCON=C(c2ccccc2)c2ccccc2)C1 has a reported fold change permeability of 1.1

The recorded fold change permeability for entry O=c1[nH]c2ccccc2n1CCN1CCN(c2cccc(C(F)(F)F)c2)CC1 equals 1.5

Reported fold change permeability ( C=Cc1c(C)c2cc3[nH]c(cc4nc(cc5nc(cc1[nH]2)C(C)=C5CCC(=O)O)C(CCC(=O)O)=C4C)c(C)c3C=C ) = 1

For CCCN1C[C@H](CSC)C[C@@H]2c3cccc4[nH]cc(c34)C[C@H]21 the molecule record lists fold change permeability as 1.1
